# experiment-description: qHTS for Inhibitors of human tyrosyl-DNA phosphodiesterase 1 (TDP1): qHTS in cells in absence of CPT; further: nearly all actives have a fitted effect of over 55% in size
# assay-setup: DT40 Tdp1-/- hTDP1 cells, no CPT, ATP luminescence, 48 h
# Experimental: Human tyrosyl-DNA phosphodiesterase 1 (TDP1) is a novel repair gene, and we propose to use it as a new target for anticancer drug development. […] For the primary screen, Tdp1-/-;hTDP1 cells will be exposed to small molecules in the presence or absence of CPT, and their growth kinetics will be evaluated after 48 hours by measuring ATP activity. […] The hit compounds will then be evaluated in the presence or absence of CPT using Tdp1-/- cells. […]
Hit rate of the full screen: of about 420,000 compounds, about 64,000 (15%) were called active. About 27% were inconclusive and are not listed. The call rests on the fitted dose curve; in most records, active means well fitted inhibition curve with a large enough effect; inconclusive means small, poorly fitted or top-dose-only effect; inactive means flat fitted curve, though single readings scatter. Not all results are given here.
Outcome codes: active, inactive

# smiles-repr, group
rows = [
    ("CCCCCN(C(=O)NC(=O)Nc1cccc(C)c1C)S(C)(=O)=O", "inactive"),
    ("CCOC(=O)CNc1nc(Cl)nc(Nc2ccccc2)n1", "inactive"),
    ("OCCNc1nc(Nc2ccc(Cl)c(Cl)c2)nc2ccccc12", "active"),
    ("CCOc1cccc(-n2nnnc2-c2ccc(OC)cc2)c1", "active"),
    ("O=S(=O)(NCc1ccccc1)c1ccc(S(=O)(=O)N2CCCC2)cc1", "inactive"),
    ("COc1ccc(NC(=O)CSc2nnnn2-c2cccc(OC)c2)cc1", "inactive"),
    ("Cc1nnc2n1N=C(c1ccc3c(c1)NC(=O)CO3)CS2", "inactive"),
    ("O=S(=O)(c1ccc2nc(N3CCN(c4cccc(Cl)c4)CC3)ccc2c1)N1CCCCC1", "inactive"),
    ("O=C(COC(=O)/C=C/c1ccc(Br)o1)Nc1cccc(S(=O)(=O)N2CCOCC2)c1", "inactive"),
    ("COc1cc2nc(Cl)nc(NCCO)c2cc1OC", "inactive"),
    ("COc1ccc(-n2nnnc2-c2nc3ccccc3s2)cc1", "inactive"),
]

###

# experiment-description: qHTS for Inhibitors of human tyrosyl-DNA phosphodiesterase 1 (TDP1): qHTS in cells in absence of CPT; further: nearly all actives have a fitted effect of over 55% in size
# assay-setup: DT40 Tdp1-/- hTDP1 cells, no CPT, ATP luminescence, 48 h
About 64,000 (15%) of roughly 420,000 compounds were called active. Another 27% or so got no clear call; they are omitted. Calls come from the whole dose curve; as a rule, active = well fitted inhibition curve with a large enough effect; inconclusive = small, poorly fitted or top-dose-only effect; inactive = flat fitted curve, though single readings scatter. The list is a sample of the results.
Outcome codes: Y (active), N (inactive)

# compound, group
rows = [
    ("Cc1ccc(OCC(=O)Nc2cccc3c2CCCC3)cc1C", "N"),
    ("Cc1cc(S(=O)(=O)NC2CCCC2)ccc1-n1cnnn1", "N"),
    ("O=C(CSc1nnnn1C1CCCC1)Nc1ccc2c(c1)OCCO2", "N"),
    ("O=C(OCc1ccc([N+](=O)[O-])cc1)C1CC(=O)N(Cc2ccccc2Cl)C1 (configuration not stated)", "N"),
    ("CC(C)C(c1nnnn1Cc1ccccc1)N1CCC(C(N)=O)CC1 (configuration not stated)", "N"),
    ("CN(C)CC(O)COc1ccc(C(C)(C)c2ccc(OCC(O)CN(C)C)cc2)cc1 (configuration not stated)", "Y"),
    ("CCCCNC(=O)N(O)C1N(/N=C/c2ccc(N(C)C)cc2)C(=S)SC1(C)C (configuration not stated)", "N"),
    ("Cc1ccc2c(c1)c1c(c(=O)n(-c3ccccc3)c(=O)n1CC(=O)c1ccc(Cl)cc1)n2C", "N"),
    ("Cc1cccc2cc(CN(Cc3cccs3)C(c3nnnn3C3CCCC3)C(C)C)c(=O)[nH]c12 (configuration not stated)", "N"),
    ("CCCc1ccc(OCC(O)CN2CCN(CCO)CC2)cc1 (configuration not stated)", "N"),
    ("CCc1ccccc1NC(=O)Cn1c(=O)n(-c2cccc(C)c2)c(=O)c2c1c1cc(OC)ccc1n2C", "Y"),
    ("CCC(c1nnnn1C1CCCC1)N(Cc1cccs1)Cc1cc2cccc(C)c2[nH]c1=O (configuration not stated)", "Y"),
    ("NS(=O)(=O)c1cccc(NC(=O)CN2CCCc3ccccc32)c1", "N"),
    ("O=C1NC(=O)C2C1C(c1ccc([N+](=O)[O-])cc1)=NN2Cc1ccccc1 (configuration not stated)", "N"),
    ("Cc1cccc2cc(CN(Cc3nnnn3Cc3ccccc3)C3CCCC3)c(=O)[nH]c12", "Y"),
    ("CCOCc1nnc(NC(=O)CCC2CCCCC2)s1", "N"),
    ("CCCOC(=O)c1[nH]c2c(c1C)C(=O)CC(c1cccs1)C2 (configuration not stated)", "Y"),
    ("Cc1nnc(SCc2cc(=O)[nH]c(N3CCN(Cc4ccccc4)CC3)n2)s1", "N"),
    ("CC1(C)C2CC=C(/C=N/NC(=O)C3CC3)C1C2 (configuration not stated)", "N"),
    ("COc1ccc(OCC(O)CN(C)C(=O)C(C)Oc2ccccc2)cc1 (configuration not stated)", "N"),
    ("CCOC(=O)C1=C(N)N2C(=O)C(C)SC2=C(C(=O)OCC)C1c1cc(OC)c(OC)c(OC)c1 (configuration not stated)", "N"),
    ("CCCOC(=O)c1cc2ccccc2oc1=O", "N"),
]

###

# experiment-description: qHTS for Inhibitors of human tyrosyl-DNA phosphodiesterase 1 (TDP1): qHTS in cells in absence of CPT; further: nearly all actives have a fitted effect of over 55% in size
# assay-setup: DT40 Tdp1-/- hTDP1 cells, no CPT, ATP luminescence, 48 h
Hit rate of the full screen: of about 420,000 compounds, about 64,000 (15%) were called active. About 27% were inconclusive and are not listed. The call rests on the fitted dose curve; in most records, active means well fitted inhibition curve with a large enough effect; inconclusive means small, poorly fitted or top-dose-only effect; inactive means flat fitted curve, though single readings scatter. Only a sample is shown.
Outcome codes: 1.0 = active, 0.0 = inactive

# smiles-repr, group
data = [
    ("COc1cc2c(cc1OC)CN(C(=O)c1cc(=O)c3ccccc3o1)CC2", 1.0),
    ("Cc1cc(C)cc(C(=O)N2CCN=C2SCc2ccc([N+](=O)[O-])cc2)c1", 0.0),
    ("COc1ccccc1N1CCN(C(=O)c2cc(=O)c3cc(C)cc(C)c3o2)CC1", 1.0),
    ("COc1ccccc1N1CCN(C(=O)c2cc(=O)c3cc(C)ccc3o2)CC1", 1.0),
    ("Cc1[nH]n(-c2ccccc2)c(=O)c1N=Nc1ccccc1C(=O)N1CCCCC1", 0.0),
    ("O=C(Cc1ccc(F)cc1)N1CCN=C1SCc1cccc([N+](=O)[O-])c1", 0.0),
    ("CN1CCN(C(=O)c2cnn(-c3ccccc3)c2NC(=O)c2ccc([N+](=O)[O-])cc2)CC1", 0.0),
    ("Cc1cccc(CC(=O)N2CCN=C2SCc2ccc([N+](=O)[O-])cc2)c1", 1.0),
    ("COC(=O)c1ccc(COc2cc([N+](=O)[O-])cc3cccnc23)cc1", 0.0),
    ("COc1ccccc1OCc1ccc(C(=O)N2CCN(C)CC2)o1", 0.0),
]

###

# experiment-description: qHTS for Inhibitors of human tyrosyl-DNA phosphodiesterase 1 (TDP1): qHTS in cells in absence of CPT; further: nearly all actives have a fitted effect of over 55% in size
# assay-setup: DT40 Tdp1-/- hTDP1 cells, no CPT, ATP luminescence, 48 h
Hit rate of the full screen: of about 420,000 compounds, about 64,000 (15%) were called active. Roughly 27% stayed inconclusive and do not appear here. Calls follow the shape of the dose curve; as a rule, active = well fitted inhibition curve with a large enough effect; inconclusive = small, poorly fitted or top-dose-only effect; inactive = flat fitted curve, though single readings scatter. The list is a sample of the results.
Outcome codes: active, inactive

# molecule, group
records = [
    ("O=C(NC1CCc2ccccc21)C12CN(Cc3ccccc3)CC1C(c1cccc([N+](=O)[O-])c1)=NO2 (stereo not given)", "inactive"),
    ("N#Cc1c(-c2ccccc2)c(-c2ccccc2)n[nH]c1=O", "inactive"),
    ("Nn1c(SCC(=O)Nc2nccs2)nnc1-c1ccco1", "inactive"),
    ("C[C@H](CO)N1C[C@H](C)[C@@H](CN(C)S(=O)(=O)c2ccc(F)cc2)Oc2ccc(NC(=O)CCC(F)(F)F)cc2C1=O", "inactive"),
    ("CCOc1cc(NS(=O)(=O)c2ccc(OC)cc2)c(OCC)cc1NC(C)=O", "inactive"),
    ("CCOC(=O)c1ccccc1NS(=O)(=O)c1ccc(OC)cc1", "active"),
    ("COC(=O)CN1C(=O)N/C(=C/c2ccc(OC)c(C)c2OC)C1=O", "inactive"),
    ("COCCNC(=O)c1ccccc1NS(=O)(=O)c1ccc(C)c([N+](=O)[O-])c1", "inactive"),
    ("Cc1ccccc1NC(=O)C1CCN(C(=O)NC2CCCCC2)CC1", "inactive"),
    ("O=C(CC1NCCNC1=O)Nc1cc(Cl)cc(Cl)c1 (stereo not given)", "inactive"),
]

###

# experiment-description: qHTS for Inhibitors of human tyrosyl-DNA phosphodiesterase 1 (TDP1): qHTS in cells in absence of CPT; further: nearly all actives have a fitted effect of over 55% in size
# assay-setup: DT40 Tdp1-/- hTDP1 cells, no CPT, ATP luminescence, 48 h
Hit rate of the full screen: of about 420,000 compounds, about 64,000 (15%) were called active. About 27% were inconclusive and are not listed. Calls come from the whole dose curve; as a rule, active = well fitted inhibition curve with a large enough effect; inconclusive = small, poorly fitted or top-dose-only effect; inactive = flat fitted curve, though single readings scatter. Not all results are given here.
Outcome codes: 1 for active, -1 for inactive

# compound, group
data = [
    ("COc1ccc(OC)c(-n2nnc3c(sc4nc(C)c(Br)c(C)c43)c2=O)c1", -1),
    ("COc1ccc(OC)c(Cc2cnc3nc(N)nc(N)c3c2C)c1", 1),
    ("CCC1=C(OC(=O)N(CC)CC)N2C(=O)OC(=NCC3CC3)[C@]2(C)[C@H]2C1=CC[C@H]1C(=O)N(CC(=O)OC)C(=O)[C@H]12", -1),
    ("NNC(=O)C1CCCn2c1nc1sc3c(c1c2=O)CCCC3 (stereo not given)", -1),
    ("Cc1cccn2c(=O)nc(SCC(=O)NCc3ccccc3Cl)nc12", -1),
]
